- test_system: AP-2 complex subunit beta (Homo sapiens)
- measurement_protocol: beta-arrestin/AP2 interaction blockers – biochemical, validation set, GST-AP2 beads, flow cytometry, pilot screen (AID 504541);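 also: AP2 carries R879A mutation and is captured from E. coli lysate; bead-bound FITC arrestin peptide fluorescence measuring arrestin peptide binding to AP2; 0% = DMSO wells and 100% = excess unlabeled arrestin peptide control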
- protocol_conditions: FITC arrestin peptide, at 10 µM, stronger effect = higher value, AP2 beta2 appendage fragment, R879A mutant
The source made the active and inactive calls.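 The calls were made as follows: active = inhibition above 54%, about 3 SD of non-fluorescent compounds; inactive = the rest.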
I'd appreciate it if you could supply inhibition values for the items below.

Recorded results for 3 molecules are shown here.
Q: What does the record list as inhibition for CN(C)[C@@H]1C(=O)C(C(N)=O)=C(O)[C@@]2(O)C(=O)C3=C(O)c4c(O)ccc(Cl)c4[C@@H](O)[C@H]3C[C@@H]12 ?
Result: 10.7% (inactive)

Q: Do the same for CCSC(SCC)[C@H](O)[C@@H](O)[C@H](O)[C@H](O)CO please
Result: 4.05% (inactive)

Q: Do the same for CC(C)[C@H]1CN(C)CCN1Cc1cn(C)nc1-c1cccc(Cl)c1 please
Result: 19.9% (inactive)

Take each entry in turn and give its inhibition.
1. COC(=O)c1ccc2c(c1)C(=O)/C(=C/c1ccc(O)cc1)O2
2. COc1ccc(-c2cc(C(=O)N3CCOCC3)c3cc(C)ccc3n2)cc1
3. Cc1cc(=O)[nH]c(=S)[nH]1
4. O=C(c1cccnc1)N1N=C(C2CC2)CC1(O)C(F)(F)F (centres undefined)
5. COc1ccc2c(CC(=O)NCC3CCC(C(=O)O)CC3)cc(=O)oc2c1 (centres undefined)
6. CC(C)C1CC(CCNCc2ccc(N(C)C)cc2)(c2ccccc2)CCO1 (centres undefined)
7. CCc1nc2ccccc2c(NC(=O)CN2CC(C)CC(C)C2)c1C (centres undefined)

Result:
1. 6.94% (inactive)
2. 9.71% (inactive)
3. -0.05% (inactive)
4. 2.62% (inactive)
5. -1.68% (inactive)
6. -7.09% (inactive)
7. -1.11% (inactive)

----------
- measurement_protocol: hit retest on RPL19A-GFP reporter strain – cell-based, S. cerevisiae, flow cytometry, cherry picks, mother/daughter gates, confirmation (AID 2270)
- protocol_conditions: 3 h, measured here: mother cell gate, at 10 µM, stronger effect = lower value, 100 = same GFP as DMSO wells
measure: GFP response vs DMSO
State the value, then name its unit.

Take each entry in turn and give its GFP response vs DMSO.
1. CC(=O)[C@@]1(O)CC[C@H]2[C@@H]3C[C@H](C)C4=CC(=O)CC[C@]4(C)[C@H]3CC[C@@]21C
2. CN(C)CCCN1c2ccccc2Sc2ccc(Cl)cc21
3. O=C(O)Cc1ccc(-c2ccccc2)cc1
4. C[C@]12C[C@H](O)[C@H]3[C@@H](CCC4=CC(=O)CC[C@@]43C)[C@@H]1CC[C@@H]2C(=O)CO

Result:
95.1%
102%
95.9%
98.7%

Take each entry in turn and give its GFP response vs DMSO.
1. c1cnc2c(c1)ccc1cccnc12
2. C[C@]12CCC(=O)C=C1[C@H](O)C[C@@H]1[C@@H]2[C@@H](O)C[C@@]2(C)[C@H]1CC[C@]2(O)C(=O)CO
3. CC(=O)OCC(=O)[C@@]1(O)CC[C@H]2[C@@H]3CCC4=CC(=O)CC[C@]4(C)[C@H]3[C@@H](O)C[C@@]21C
4. O=c1cc(-c2ccccc2)oc2cc(OCc3ccccc3)cc(O)c12
5. COc1ccc(-c2[nH]ncc2CN(CCO)Cc2cccs2)c(F)c1

Result:
1: 100%; 2: 99.2%; 3: 97.7%; 4: 98.7%; 5: 98.4%
